molecular target: Ecdysone receptor (Bemisia tabaci, UniProt A3EZJ4+A3EZJ5); assay: Binding affinity to Bemisia tabaci (sweet potato whitefly) ecdysone receptor (EcR)
Sequence (A3EZJ4 1-297): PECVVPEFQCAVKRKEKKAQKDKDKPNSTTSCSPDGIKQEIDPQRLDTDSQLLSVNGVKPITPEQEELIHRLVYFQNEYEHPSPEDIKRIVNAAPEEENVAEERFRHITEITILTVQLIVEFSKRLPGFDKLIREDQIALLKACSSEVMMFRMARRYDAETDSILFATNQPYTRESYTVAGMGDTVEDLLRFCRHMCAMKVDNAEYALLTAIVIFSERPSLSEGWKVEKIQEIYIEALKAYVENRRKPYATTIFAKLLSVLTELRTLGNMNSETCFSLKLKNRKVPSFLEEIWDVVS
Sequence (A3EZJ5 1-251): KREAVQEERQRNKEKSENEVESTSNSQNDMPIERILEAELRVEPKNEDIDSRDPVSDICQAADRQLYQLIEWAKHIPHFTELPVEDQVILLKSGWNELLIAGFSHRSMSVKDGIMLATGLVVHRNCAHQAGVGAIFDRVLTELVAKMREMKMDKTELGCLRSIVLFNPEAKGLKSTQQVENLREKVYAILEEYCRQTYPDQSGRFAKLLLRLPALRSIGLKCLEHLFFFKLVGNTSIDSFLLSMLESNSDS
READOUT_TYPE: Ki

MOLECULE: CCc1ccc(C(=O)NN(C(=O)c2cc(C)cc(C)c2)C(C)(C)C)cc1 [TEBUFENOZIDE]
READOUT_TYPE: Ki
RESULT: > 501 µM

====

target: Ecdysone receptor (Nezara viridula, UniProt E5L6Y0+E5L6Y1); experiment: Binding affinity to Nezara viridula EcR; assay type: protein-complex assay
pKi: −log10 of the molar value.

COMPOUND: CCc1ccc(C(=O)NN(C(=O)c2cc(C)cc(C)c2)C(C)(C)C)cc1 [TEBUFENOZIDE]
pKi: 4.60

====

biological target: Ecdysone receptor (Nezara viridula, UniProt E5L6Y0+E5L6Y1); experiment: Displacement of [3H]PonA from recombinant Nezara viridula EcR11; type: protein-complex assay
pKi: −log10 of the molar value.
READOUT_TYPE: pKi

COMPOUND: CC(C)CC[C@@H](O)[C@](C)(O)[C@H]1CC[C@@]2(O)C3=CC(=O)[C@]4(O)C[C@@H](O)[C@@H](O)C[C@]4(C)[C@H]3[C@H](O)C[C@]12C
QUANTITATIVE_READOUT: 7.00

COMPOUND: CCc1ccc(C(=O)NN(C(=O)c2cc(C)cc(C)c2)C(C)(C)C)cc1 [TEBUFENOZIDE]
QUANTITATIVE_READOUT: 4.62

COMPOUND: CC(CO)CC[C@@H](O)[C@](C)(O)[C@H]1CC[C@@]2(O)C3=CC(=O)[C@@H]4C[C@@H](O)[C@@H](O)C[C@]4(C)[C@H]3CC[C@]12C (stereo partly drawn)
QUANTITATIVE_READOUT: 5.22

====

Biological target: Ecdysone receptor (Nezara viridula, UniProt E5L6Y0+E5L6Y1)
Sequence (E5L6Y1 whole entry): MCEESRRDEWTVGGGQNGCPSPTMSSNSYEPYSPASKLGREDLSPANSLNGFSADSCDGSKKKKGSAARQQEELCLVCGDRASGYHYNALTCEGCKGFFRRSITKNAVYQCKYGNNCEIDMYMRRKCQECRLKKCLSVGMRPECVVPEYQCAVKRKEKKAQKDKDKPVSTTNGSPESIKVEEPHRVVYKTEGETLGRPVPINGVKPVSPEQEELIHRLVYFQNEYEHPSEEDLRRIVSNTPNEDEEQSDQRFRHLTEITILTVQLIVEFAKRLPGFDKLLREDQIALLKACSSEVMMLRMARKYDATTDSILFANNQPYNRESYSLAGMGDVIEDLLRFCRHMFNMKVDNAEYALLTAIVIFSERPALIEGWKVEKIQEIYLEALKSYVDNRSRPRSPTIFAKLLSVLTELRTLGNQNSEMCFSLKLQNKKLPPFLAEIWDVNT
Sequence (E5L6Y0 whole entry): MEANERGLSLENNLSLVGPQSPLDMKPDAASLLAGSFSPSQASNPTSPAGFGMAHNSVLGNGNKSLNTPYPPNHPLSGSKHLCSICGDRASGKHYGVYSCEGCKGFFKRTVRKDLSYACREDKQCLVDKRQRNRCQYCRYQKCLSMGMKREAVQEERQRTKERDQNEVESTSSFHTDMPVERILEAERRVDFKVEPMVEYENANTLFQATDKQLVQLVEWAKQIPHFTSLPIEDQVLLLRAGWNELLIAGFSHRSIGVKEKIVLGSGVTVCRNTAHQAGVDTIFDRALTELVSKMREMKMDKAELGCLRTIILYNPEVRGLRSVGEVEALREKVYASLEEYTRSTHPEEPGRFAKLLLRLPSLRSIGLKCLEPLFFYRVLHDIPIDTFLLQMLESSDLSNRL
Test: Binding affinity to Nezara viridula EcR
Format: protein-complex assay

COMPOUND: CC(C)(O)CC[C@@H](O)[C@](C)(O)[C@H]1CC[C@@]2(O)C3=CC(=O)[C@@H]4C[C@@H](O)[C@@H](O)C[C@]4(C)[C@H]3CC[C@]12C [20-HYDROXYECDYSONE]
IC50 / nM: 1050
--
COMPOUND: C[C@H](C[C@@H](O)[C@](C)(O)[C@H]1CC[C@@]2(O)C3=CC(=O)[C@@H]4C[C@@H](O)[C@@H](O)C[C@]4(C)[C@H]3CC[C@]12C)C(C)(C)O [MAKISTERONE A]
IC50 / nM: 1380

The values you see were collected from ChEMBL document CHEMBL3045439.
